subject-of-test: BRD2-BD2 (Homo sapiens (Human), UniProt P25440)
Sequence (P25440 344-453): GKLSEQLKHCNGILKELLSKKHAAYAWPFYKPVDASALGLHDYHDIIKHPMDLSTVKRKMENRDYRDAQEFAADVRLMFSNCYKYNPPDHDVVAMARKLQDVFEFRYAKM
measurement-description: competitive TR-FRET assay, BET-BD with acetylated peptide ligand
Format: binding
condition-info: ratio of BRD2-BD1 EC50 to BRD2-BD2 EC50 (selectivity)
measurement-name: 2.1/2.2

Query string: Recorded 2.1/2.2 for `CC(=O)Nc1cccc(-c2ccc3c(c2)[C@H](NC2CCOCC2)C[C@H](C)N3C(C)=O)c1` , please?
Result string: 1.1

Query string: // query: `CCCNc1cccc(-c2ccc3c(c2)[C@H](NC(=O)OC(C)C)C[C@H](C)N3C(C)=O)c1`
Result string: 0.091

Query string: // query: `CCCOc1cccc(-c2ccc3c(c2)[C@H](Nc2ccc(C(=O)OC)cc2)C[C@H](C)N3C(C)=O)c1`
Result string: 16

Query string: // query: COc1cccc(NC2CCN(C(C)=O)c3ccc(-c4cccc(NC(C)=O)c4)cc32)c1 (stereo not shown)
Result string: 22

* * *

Assignment: determine reported pEC50 for the given molecules.
subject-of-test: BRD2-BD2 (Homo sapiens (Human), UniProt P25440)
measurement-description: competitive TR-FRET assay, BET-BD with acetylated peptide ligand
Format: binding
condition-info: BRD2-BD2; Table 11 additional modifications; read-out: 2.2 EC50
Please treat pEC50 as minus the base-10 logarithm of the molar concentration.

Query string: Give the reported pEC50 for `CC(=O)N1c2ccc(-c3ccc4occc(=O)c4c3)cc2[C@H](NC(=O)OC(C)C)C[C@@H]1C` (system: BRD2-BD2 (Homo sapiens (Human), UniProt P25440)).
Result string: 5.96

Query string: // query: `CC(=O)Nc1cccc(-c2ccc3c(c2)[C@H](Nc2ccc4c(c2)COC4=O)C[C@H](C)N3C(C)=O)c1`
Result string: 7.52

Query string: // query: `COc1cc(N[C@@H]2C[C@H](C)N(C(C)=O)c3ccc(-c4cccc(NC(C)=O)c4)cc32)ccc1C#N`
Result string: 7.33

Query string: // query: `CCCOc1cccc(-c2ccc3c(c2)[C@H](Nc2ccccc2OC(F)(F)F)C[C@H](C)N3C(C)=O)c1`
Result string: 5.68

Query string: // query: `CC(=O)N1c2ccc(-c3cccc(-n4cccn4)c3)cc2[C@H](Nc2ccc(Cl)cc2)C[C@@H]1C`
Result string: 6.72

Query string: // query: `CC(=O)Nc1cccc(-c2ccc3c(c2)[C@H](Nc2ccc(-c4nnnn4C)cc2)C[C@H](C)N3C(C)=O)c1`
Result string: 8.00

Query string: // query: `CC(=O)Nc1cccc(-c2ccc3c(c2)[C@H](Nc2ccc4ncccc4c2)C[C@H](C)N3C(C)=O)c1`
Result string: 4.23

* * *

Assignment: determine reported pEC50 for the given compounds.
subject-of-test: BRD3-BD1 (Homo sapiens (Human), UniProt Q15059)
Sequence (Q15059 34-140): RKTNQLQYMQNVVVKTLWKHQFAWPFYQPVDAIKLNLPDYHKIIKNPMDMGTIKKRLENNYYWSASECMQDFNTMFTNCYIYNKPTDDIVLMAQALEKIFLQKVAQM
measurement-description: competitive TR-FRET assay, BET-BD with acetylated peptide ligand
Format: binding
condition-info: Table 4; read-out: BRD3(1)
Please treat pEC50 as minus the base-10 logarithm of the molar concentration.

Query string: Recorded pEC50 for `COc1ccccc1N[C@@H]1C[C@H](C)N(C(C)=O)c2ccc(-c3cccc(NC(C)=O)c3)cc21` , please?
Result string: 5.70

Query string: // query: `CC(=O)Nc1cccc(-c2ccc3c(c2)[C@H](Nc2ccc(F)cc2)C[C@H](C)N3C(C)=O)c1`
Result string: 5.57

Query string: // query: `CC(=O)Nc1cccc(-c2ccc3c(c2)[C@H](Nc2ccccc2OC(F)(F)F)C[C@H](C)N3C(C)=O)c1`
Result string: 5.27

Query string: // query: `CC(=O)Nc1cccc(-c2ccc3c(c2)[C@H](Nc2ccc(Cl)cc2)C[C@H](C)N3C(C)=O)c1`
Result string: 5.72

Query string: // query: `CC(=O)Nc1cccc(-c2ccc3c(c2)[C@H](Nc2ccccc2C(F)(F)F)C[C@H](C)N3C(C)=O)c1`
Result string: 4.70

Query string: // query: `COC(=O)c1ccc(N[C@@H]2C[C@H](C)N(C(C)=O)c3ccc(-c4cccc(NC(C)=O)c4)cc32)cc1`
Result string: 5.96

Source of measurements: patent US11028051B2
